Attribution: patent US20260265403A1

TESTED TARGET: T1, human CD24 on cells (human, UniProt P25063 27-59)
T1 chain (looked up): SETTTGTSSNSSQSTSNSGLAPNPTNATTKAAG
TEST SUMMARY: cell-based or functional assay
Friendly reminder: EC50 of Phagocytosis assay, IgG4, Kappa; HEK293-CD24 below 0.9 µg/mL is yes, at or above is no.

Prompt: Does the reported EC50 of Phagocytosis assay, IgG4, Kappa; HEK293-CD24 of the following binder sit strictly below 0.9 µg/mL? 80-F10A6, IgG4, Kappa (antibody, V domains shown) VH: EVQLQQSGPVLVNPGASVKISCKASGYSFTGYYMNWVKQSPEKSLEWIGEVNPITGDTTYSQNFKAKTTLTVDRSSSTAYMQLKSLTSEDSAVYYCTRRDYGTSLDYWGQGTTLTVSS VL: DVQITQSPSYLAASPGETITIHCRASKSISRYLAWYQEKPGKINTLLIYAGSTLHLGIPSRFSGSGSGTDFTLTISSLELEDFAMYYCQQHNEYPITFGAGTKLELK
Completion: yes

New cases:
Prompt: Does the reported EC50 of Phagocytosis assay, IgG4, Kappa; HEK293-CD24 of the following binder sit strictly below 0.9 µg/mL? 90-D11B6, IgG4, Kappa (antibody, V domains shown) VH: EVQLQQSGPELVKPGASVRISCKASGYSFTGYYMNWVKQSPEKNLEWIGEINPITGGSTYNQKFVAKATLTVDRSSSTAYMQLKSLTSEDSAVYYCTRRDYDTSLDYWGQGTTLTVSS VL: DVQITQSPSYLAASPGETITINCRASKSISKYLAWYQEKPGKTIKLLIYAGSTLQSGIPSRFSGSGYGTDFTLTISSLEPEDFAMYYCQQHNEYPLTFGAGTKLELK
Completion: no

Prompt: Likewise for 59-G9D7, IgG4, Kappa (antibody, V domains shown) VH: QVQLQQPGADLVKPGASVKLSCKASGYTVTTYWMHWVRQRPGRGLEWIGRIDPNSGETKYSEKFKNKATLTVDRPSSTAYMQLSSLTFEDSAVYFCAIYYYLNNFLFDYWGQGTTLTVSS VL: ENVLTQSPAIMSASPGEKVTMTCRASSSVSSSYLHWYQKKSGASPKLWIYSTSNLASGVPARFSGSGSGTSYSLTISSVEAEDAATYYCQQYSGYPLTFGAGTKLELK ?
Completion: no

Prompt: Likewise for 89-E8C12 (4428), IgG4, Kappa (antibody, V domains shown) VH: EVQLQQSGPELVKPGASVKISCKASGYDFTGYYMNWMKQSPEKSLEWIGEINPITSHNTFNQKFKAKATLTVDRSSSTAYMHLKSLTSEDSAVYYCARRDYGTSLDYWGQGTTLTVSS VL: DVQITQSPSYLAASPGETITIYCRASKSISKYLAWYQEKPEKTIRLLIYAGSTLQSGIPSRFRGSGSGTDFTLTVSGLEPEDFAMYYCQQHNEYPLTFGAGTKLELK ?
Completion: yes

Prompt: Likewise for 74-H4C6 (4451), IgG4, Kappa (antibody, V domains shown) VH: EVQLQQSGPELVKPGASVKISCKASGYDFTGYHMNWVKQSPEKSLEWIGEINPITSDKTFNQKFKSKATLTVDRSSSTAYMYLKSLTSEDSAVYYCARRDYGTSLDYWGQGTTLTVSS VL: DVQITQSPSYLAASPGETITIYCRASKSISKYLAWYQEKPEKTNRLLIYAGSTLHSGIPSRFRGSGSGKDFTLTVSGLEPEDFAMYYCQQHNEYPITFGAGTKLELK ?
Completion: yes
